Catalogue of microsomal CLint at 0.5 h, 0.5 µM readings, one per entry.
Protocol text: in vitro
Test conditions: mouse, liver microsomes
Description: Metabolic stability in mouse liver microsomes assessed as intrinsic clearance at 0.5 uM incubated for 30 mins by LC-MS/MS analysis
All answers are understood in µL/min/mg, so give the number only.

Requested field: microsomal CLint at 0.5 h, 0.5 µM. Item: CCC(=O)N1CCCC(c2nc3ncc(Cl)cc3[nH]2)C1 (stereo not given)
128

Need microsomal CLint at 0.5 h, 0.5 µM of O=C(c1ccccn1)N1CCCC(c2cc3ncccc3[nH]2)C1 (stereo not given) , thanks.
164

Item O=C(c1cc(C(F)(F)F)no1)N1CCCC(c2cc3ncccc3[nH]2)C1 (stereo not given) has what recorded microsomal CLint at 0.5 h, 0.5 µM?
449

Report microsomal CLint at 0.5 h, 0.5 µM for O=C(c1ccc(F)cc1)N1CCCC(c2cc3ncc(Cl)cc3[nH]2)C1 (stereo not given) please.
235

Consider the compound shown here: CN(C(=O)c1ccccc1)c1cccc(-c2cc3ncccc3[nH]2)c1 What is its recorded microsomal CLint at 0.5 h, 0.5 µM?
1200

----------
Test system: Trypanosoma brucei rhodesiense
Protocol text: microbe, parasite or virus in culture
Test conditions: STIB900, 72 h
Description: Antiprotozoal activity against Trypanosoma brucei rhodesiense STIB900 trypomastigotes incubated for 72 hrs by resazurin dye based fluorimetric analysis
Assay readout: IC50
# do not omit the unit; it follows the number

These recorded examples may help you get a feel for the data.
O=C(c1ccccc1)N1CCCC(c2cn3ncccc3n2)C1 (stereo unspecified) :: 64 µM
O=C(c1ccccc1)N1CCCC(c2cc3ncccn3n2)C1 (stereo unspecified) :: 64 µM
O=C(c1cc(C2CC2)no1)N1CCOC(c2cc3ncccc3[nH]2)C1 (stereo unspecified) :: 64 µM
O=C(c1ccc(F)cc1)N1CCCC(c2cc3ncc(Cl)cc3[nH]2)C1 (stereo unspecified) :: 5.82 µM
CC(C)(C)OC(=O)N1CCCC(c2cn3nc(Cl)ccc3n2)C1 (stereo unspecified) :: 64 µM

Entry under review: O=C(c1ccccc1)N1C=C(c2cc3ncccc3[nH]2)CCC1 . Reported IC50?
64 µM

Fill in the blank: the reported IC50 of COc1ccc(C(=O)N2CCCC(c3cc4ncccc4[nH]3)C2)cc1OC (stereo unspecified) is ____.
64 µM

Would you kindly share the measured IC50 for O=C(c1ccc(F)cc1)N1CCCC(c2cc3nc(N4CCCC4)ccc3[nH]2)C1 (stereo unspecified) ?
8.03 µM

Any idea what IC50 was measured for N#Cc1cnc2cc(C3CCCN(C(=O)c4cc(C(F)(F)F)no4)C3)[nH]c2c1 (stereo unspecified) ?
64 µM

Query (compound): O=C(c1ccccc1)N1CCCC(c2cn3cccnc3n2)C1 (stereo unspecified) ; field requested: IC50
64 µM

Record request: IC50 value, item O=C(c1ccccc1)N1CCCC(c2nc3ncccc3[nH]2)C1 (stereo unspecified)
64 µM

----------
Protocol text: in vitro
Test conditions: mouse, peritoneal macrophages
Description: Cytotoxicity against mouse peritoneal Macrophage cells assessed as reduction in cell viability incubated for 3 days by fluorimetry
Assay readout: IC90 at 72 h

O=C(c1cc(C2CC2)no1)N1CCCC(c2cc3ncccc3[nH]2)C1 (centres undefined) :: 64 µM

Consider the compound shown here: O=C(c1ccccc1)N1CCN(c2nc3ccccc3s2)CC1 What is its recorded IC90 at 72 h?
64 µM

Quick one: IC90 at 72 h for CC(C)c1cc(C(=O)N2CCC(O)(c3cc4ncccc4[nH]3)CC2)on1 ?
64 µM

Tell me the measured IC90 at 72 h of CCC(=O)N1CCCC(c2nc3ncc(Cl)cc3[nH]2)C1 (centres undefined) , please.
64 µM

Query (compound): O=C(c1cc(C(F)(F)F)n[nH]1)N1CCCC(c2cc3ncccc3[nH]2)C1 (centres undefined) ; field requested: IC90 at 72 h
64 µM

Which IC90 at 72 h is reported for this compound? COc1ccc2cc(C(=O)N3CCCC(c4cc5ncccc5[nH]4)C3)[nH]c2c1 (centres undefined)
32 µM

Which IC90 at 72 h value is on record for O=C(c1cc(C2CC2)no1)N1CCOC(c2cc3ncccc3[nH]2)C1 (centres undefined) ?
64 µM

IC90 at 72 h lookup needed for COc1cc(OC)c2cc(C(=O)N3CCCC(c4cc5ncccc5[nH]4)C3)[nH]c2c1 (centres undefined) , thanks.
29.9 µM

Which IC90 at 72 h value belongs to Nc1cc(C2CCCN(C(=O)c3ccccc3)C2)[nH]n1 (centres undefined) ?
64 µM

Suppose we examine the compound O=C(c1ccc(C(F)(F)F)nc1)N1CCCC(c2cc3ncccc3[nH]2)C1 (centres undefined) ; what IC90 at 72 h value has been reported?
64 µM

FYI, the data here is from ChEMBL document CHEMBL4342426.
